Target: Nav 1.7 (Homo sapiens (Human), UniProt Q15858)
Sequence (Q15858 whole entry): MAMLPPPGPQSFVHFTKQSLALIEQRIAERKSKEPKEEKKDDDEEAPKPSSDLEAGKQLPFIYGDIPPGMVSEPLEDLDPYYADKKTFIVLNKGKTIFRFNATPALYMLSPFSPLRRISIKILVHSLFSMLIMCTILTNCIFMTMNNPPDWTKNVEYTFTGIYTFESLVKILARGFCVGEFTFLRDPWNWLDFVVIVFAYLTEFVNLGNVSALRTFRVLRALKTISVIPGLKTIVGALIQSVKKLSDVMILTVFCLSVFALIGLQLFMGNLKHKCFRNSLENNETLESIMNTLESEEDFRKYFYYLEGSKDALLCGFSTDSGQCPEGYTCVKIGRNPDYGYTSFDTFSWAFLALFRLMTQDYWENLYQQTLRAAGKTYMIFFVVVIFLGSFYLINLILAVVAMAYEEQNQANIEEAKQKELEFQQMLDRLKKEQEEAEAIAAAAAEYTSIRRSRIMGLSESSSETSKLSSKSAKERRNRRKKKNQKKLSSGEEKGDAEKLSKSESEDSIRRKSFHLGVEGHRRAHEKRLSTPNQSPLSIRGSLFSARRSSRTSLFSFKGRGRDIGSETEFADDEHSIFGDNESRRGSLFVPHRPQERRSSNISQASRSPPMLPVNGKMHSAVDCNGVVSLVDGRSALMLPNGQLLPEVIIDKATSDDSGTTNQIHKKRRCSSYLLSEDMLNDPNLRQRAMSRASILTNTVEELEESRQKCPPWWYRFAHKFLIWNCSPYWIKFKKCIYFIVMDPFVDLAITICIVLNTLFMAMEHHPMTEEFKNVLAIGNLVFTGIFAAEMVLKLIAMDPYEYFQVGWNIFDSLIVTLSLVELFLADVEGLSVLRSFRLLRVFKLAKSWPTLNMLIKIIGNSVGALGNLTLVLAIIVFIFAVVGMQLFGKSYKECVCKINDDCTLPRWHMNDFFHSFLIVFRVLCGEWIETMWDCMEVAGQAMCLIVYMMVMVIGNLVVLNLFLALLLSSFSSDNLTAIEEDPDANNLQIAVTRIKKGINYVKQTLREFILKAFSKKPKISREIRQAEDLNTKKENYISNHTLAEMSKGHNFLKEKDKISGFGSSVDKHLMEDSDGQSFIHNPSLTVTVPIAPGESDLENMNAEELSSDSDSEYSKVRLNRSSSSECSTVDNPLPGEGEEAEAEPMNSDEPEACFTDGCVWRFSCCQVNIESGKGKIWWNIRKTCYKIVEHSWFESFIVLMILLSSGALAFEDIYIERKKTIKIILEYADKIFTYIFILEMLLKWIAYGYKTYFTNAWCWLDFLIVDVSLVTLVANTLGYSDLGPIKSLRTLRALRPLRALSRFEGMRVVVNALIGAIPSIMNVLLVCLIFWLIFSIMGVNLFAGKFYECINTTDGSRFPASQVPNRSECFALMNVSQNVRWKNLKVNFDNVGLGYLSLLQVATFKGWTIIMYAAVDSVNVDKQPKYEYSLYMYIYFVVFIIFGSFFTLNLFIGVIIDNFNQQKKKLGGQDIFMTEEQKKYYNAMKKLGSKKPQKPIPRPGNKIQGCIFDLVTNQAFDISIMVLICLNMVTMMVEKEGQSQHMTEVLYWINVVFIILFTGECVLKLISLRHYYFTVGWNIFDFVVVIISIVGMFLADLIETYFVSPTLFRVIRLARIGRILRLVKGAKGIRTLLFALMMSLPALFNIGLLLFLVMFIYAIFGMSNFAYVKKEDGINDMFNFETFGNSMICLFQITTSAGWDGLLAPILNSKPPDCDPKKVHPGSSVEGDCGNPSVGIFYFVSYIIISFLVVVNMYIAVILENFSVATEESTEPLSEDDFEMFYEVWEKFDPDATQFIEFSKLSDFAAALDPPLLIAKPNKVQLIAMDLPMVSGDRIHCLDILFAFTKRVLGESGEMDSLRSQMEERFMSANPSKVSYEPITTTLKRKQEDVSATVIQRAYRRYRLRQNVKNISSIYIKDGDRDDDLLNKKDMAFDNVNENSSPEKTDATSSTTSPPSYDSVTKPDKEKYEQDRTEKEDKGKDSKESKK
Experiment: Inhibition of sodium channels, Red Membrane Potential Dye FLIPR assay, veratridine depolarization
Format: cell-based
Conditions: HEK-293 cells overexpressing the channel; read-out: Nav1.7 IC50
pIC50: −log10 of the molar value.
Lab note: compare pIC50 against 7. Equal or greater, write Fulfilled. Smaller, write Not fulfilled.

Below are worked cases with known answers.
O=S(=O)(Nc1ncccn1)c1ccc2c(c1)OCC[C@H]2c1ccc(C(F)(F)F)cc1OC1COC1 [Example-216] : Not fulfilled
Cc1ccc(NS(=O)(=O)c2ccc3c(c2)OCC[C@H]3c2ccc(C(F)(F)F)cc2-c2ccnn2C)nc1 [Example 21] : Not fulfilled
COCCCCc1cc(C(F)(F)F)ccc1[C@H]1CCOc2cc(S(=O)(=O)Nc3ccncn3)ccc21 (racemic) [Example 149] : Fulfilled

QUERY: State whether the measured pIC50 reaches 7, counting equality as reaching it, for O=S(=O)(Nc1ncccn1)c1ccc2c(c1)OCC[C@@H]2c1ccc(C(F)(F)F)cc1-c1nccs1 (racemic) [Example 93]
RESULT: Fulfilled

----------
Molecular target: Nav 1.7 (Homo sapiens (Human), UniProt Q15858)
Assay: Inhibition of sodium channels, Red Membrane Potential Dye FLIPR assay, veratridine depolarization
Type: cell-based
Details: HEK-293 cells overexpressing the channel; read-out: Nav1.7 IC50
pIC50: −log10 of the molar value.
Lab note: compare pIC50 against 7. Equal or greater, write 1. Smaller, write -1.

CC(C)Oc1ccc([C@@H]2CCOc3cc(S(=O)(=O)Nc4cccc(F)n4)ccc32)c(-c2ccnn2C)c1 : -1

QUERY: State whether the measured pIC50 reaches 7, counting equality as reaching it, for O=S(=O)(Nc1ncc(F)cn1)c1ccc2c(c1)OCC[C@@H]2c1ccc(C(F)(F)F)cc1OC1COC1 (racemic)
RESULT: 1

QUERY: Proceed to CCOc1ccc(-c2cc(C(F)(F)F)ccc2[C@H]2CCOc3cc(S(=O)(=O)Nc4ncccn4)ccc32)cn1 (racemic)
RESULT: 1

QUERY: Proceed to O=C1CCCN1c1cc(C(F)(F)F)ccc1[C@H]1CCOc2cc(S(=O)(=O)Nc3ccncn3)ccc21 (racemic)
RESULT: -1

----------
Please provide measured inhibition at 10 µM for the entries that follow.
Molecular target: Nav 1.5 (Homo sapiens (Human), UniProt Q14524)
Sequence (Q14524 whole entry): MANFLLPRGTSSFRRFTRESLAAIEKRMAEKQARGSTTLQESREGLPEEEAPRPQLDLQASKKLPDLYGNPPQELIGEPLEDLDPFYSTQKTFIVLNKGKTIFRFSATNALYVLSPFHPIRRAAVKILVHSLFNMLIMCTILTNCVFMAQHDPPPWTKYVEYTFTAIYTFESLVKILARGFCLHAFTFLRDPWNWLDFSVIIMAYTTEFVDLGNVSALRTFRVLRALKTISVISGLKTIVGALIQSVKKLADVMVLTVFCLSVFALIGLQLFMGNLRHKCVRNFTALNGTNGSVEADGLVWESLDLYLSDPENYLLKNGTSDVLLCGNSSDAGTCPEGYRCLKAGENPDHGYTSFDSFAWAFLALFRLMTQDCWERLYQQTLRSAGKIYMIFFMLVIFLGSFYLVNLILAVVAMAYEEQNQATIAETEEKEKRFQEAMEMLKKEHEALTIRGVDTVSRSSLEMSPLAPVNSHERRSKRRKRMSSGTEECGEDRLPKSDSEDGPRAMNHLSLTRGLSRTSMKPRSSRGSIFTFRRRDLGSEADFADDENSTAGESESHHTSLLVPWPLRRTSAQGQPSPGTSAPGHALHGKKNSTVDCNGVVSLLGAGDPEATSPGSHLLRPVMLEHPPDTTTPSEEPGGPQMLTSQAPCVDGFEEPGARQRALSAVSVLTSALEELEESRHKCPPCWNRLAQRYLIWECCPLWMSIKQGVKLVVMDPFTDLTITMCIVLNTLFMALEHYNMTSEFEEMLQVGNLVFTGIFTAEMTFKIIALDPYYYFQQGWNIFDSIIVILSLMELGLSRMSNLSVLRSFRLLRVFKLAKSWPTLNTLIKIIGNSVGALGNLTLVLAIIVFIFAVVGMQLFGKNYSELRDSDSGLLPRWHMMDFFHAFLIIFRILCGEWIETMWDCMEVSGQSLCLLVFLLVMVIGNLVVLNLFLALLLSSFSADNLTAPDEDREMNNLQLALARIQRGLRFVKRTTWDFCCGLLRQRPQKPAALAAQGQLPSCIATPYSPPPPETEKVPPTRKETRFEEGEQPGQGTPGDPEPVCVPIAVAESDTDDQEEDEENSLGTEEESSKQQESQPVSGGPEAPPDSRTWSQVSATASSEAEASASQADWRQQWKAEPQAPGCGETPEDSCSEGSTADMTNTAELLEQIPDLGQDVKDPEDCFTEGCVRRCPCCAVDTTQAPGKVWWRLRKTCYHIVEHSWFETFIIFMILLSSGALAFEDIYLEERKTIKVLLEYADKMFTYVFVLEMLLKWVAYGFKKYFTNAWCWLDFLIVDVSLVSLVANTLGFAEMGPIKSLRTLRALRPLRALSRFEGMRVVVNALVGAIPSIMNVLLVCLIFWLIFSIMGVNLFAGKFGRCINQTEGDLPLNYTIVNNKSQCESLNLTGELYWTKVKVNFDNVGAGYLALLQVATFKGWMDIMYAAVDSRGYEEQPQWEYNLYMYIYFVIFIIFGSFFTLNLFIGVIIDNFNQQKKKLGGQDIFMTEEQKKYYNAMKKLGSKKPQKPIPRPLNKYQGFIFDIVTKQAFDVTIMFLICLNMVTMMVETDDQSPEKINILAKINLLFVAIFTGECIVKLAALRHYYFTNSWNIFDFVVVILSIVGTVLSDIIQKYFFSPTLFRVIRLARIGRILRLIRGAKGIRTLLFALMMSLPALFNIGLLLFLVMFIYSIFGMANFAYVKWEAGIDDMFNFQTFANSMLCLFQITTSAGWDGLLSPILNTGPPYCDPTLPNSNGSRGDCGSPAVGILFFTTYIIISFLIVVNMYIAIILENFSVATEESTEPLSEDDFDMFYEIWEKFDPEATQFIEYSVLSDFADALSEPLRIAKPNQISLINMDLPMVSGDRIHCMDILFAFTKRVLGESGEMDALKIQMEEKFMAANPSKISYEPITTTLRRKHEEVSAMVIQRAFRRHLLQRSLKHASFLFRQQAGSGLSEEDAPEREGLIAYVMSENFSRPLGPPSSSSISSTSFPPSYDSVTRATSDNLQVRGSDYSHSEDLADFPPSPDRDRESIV
Assay: Inhibition of sodium channels, Red Membrane Potential Dye FLIPR assay, veratridine depolarization
Assay type: cell-based
Settings: HEK-293 cells overexpressing Nav 1.5; HEK-293 cells overexpressing the channel; 10 μM
Answers are plain numbers, in %.

Sample records with inhibition at 10 µM:
O=S(=O)(Nc1ccncn1)c1ccc2c(c1)OCC[C@@H]2c1ccc(C(F)(F)F)cc1CCC(F)F (racemic) [Example-213] : 65
O=S(=O)(Nc1ccncn1)c1ccc2c(c1)OCC[C@@H]2c1ccc(C(F)(F)F)cc1CCCF (racemic) [Example 160] : 61
O=S(=O)(Nc1ncccn1)c1ccc2c(c1)OCC[C@@H]2c1ccc(C(F)(F)F)cc1CCF (racemic) [Example 153] : 35

In the following, a different compound is considered.
QUERY: Param item = COCCCOc1cc(C(F)(F)F)ccc1[C@H]1CCOc2cc(S(=O)(=O)Nc3cccnn3)ccc21 (racemic) [Example 133] ; retrieve measured inhibition at 10 µM.
RESULT: 66
